tested on: MS2 coat protein; assay: apparent Kd, MS2 coat protein; higher = weaker binding; RNA-MaP array; FMN 200 µM where present; conditions: ligand present: flavin mononucleotide; designed as: ON switch for flavin mononucleotide
sequences and their reported apparent Kd
Write it as a number; the unit µM goes unstated.

chain-sequence	measurement-target	assay-value
GCAAUAGCAUGAGGAUAUGCUGGAGUUUAGACAGUAGAAGGCAUGUCAUAAGACAUGAGGAUCACCCAUGUAGUUACAAUGGCA	MS2 coat protein	0.0136

Query: API: value(readout=apparent Kd, system=MS2 coat protein) for record UCUAGGGACGCAGGAUAUGGAGUGAGUGUCUAUCACAUGAGGAUCACCCAUGUUUGGGUCUCACGCUAGAAGGGCGAAUGUGGG
Result: 0.0635

Query: API: value(readout=apparent Kd, system=MS2 coat protein) for record AAUUUGUGAAAAUUACAUGAGGAUCACCCAUGUUAGGGAAUGCAGGAUAUGUGGUUUAUUAUUUUACAGAAGGGCAAUAAUUUU
Result: 0.0536

Query: API: value(readout=apparent Kd, system=MS2 coat protein) for record UUAGGACGAAACAUGAGGAUCACCCAUGUGUUAUAAUUAAUAUAGGAUAUGUUUAUACUUUUUGGGCAGAAGGAUGAUAUUGCU
Result: 0.0168

Query: API: value(readout=apparent Kd, system=MS2 coat protein) for record GCCAUCGGGUGAGGAUAUAAAAUUAUAAUUAAAUUAGAAGGCACCUCAUAAGACAUGAGGAUCACCCAUGUAGUUAAGAUGGCA
Result: 0.0295

Source: the EternaBench riboswitch data
